Attribution: paper PMC9120017

# target or test system: mouse TMEM16A mutant R535A (Mus musculus, UniProt Q8BHY3, R535A)
# Construct: expressed in transfected cells; host or cells: HEK293T
# assay: Inside-out patch recording of 1PBC block, mutant R535A
# Assay type: cell-based
# measurement setup: R535A; V -80 mV
pIC50: −log10 of the molar value.
measurement label: pIC50

structure_smiles=N#Cc1c(C(F)(F)F)cc(O)n2c1nc1ccccc12 value_measured=4.59

* * *

# target or test system: mouse TMEM16A mutant Y514A (Mus musculus, UniProt Q8BHY3, Y514A)
# Construct: expressed in transfected cells; host or cells: HEK293T
# Sequence (Q8BHY3 1-960 Y514A): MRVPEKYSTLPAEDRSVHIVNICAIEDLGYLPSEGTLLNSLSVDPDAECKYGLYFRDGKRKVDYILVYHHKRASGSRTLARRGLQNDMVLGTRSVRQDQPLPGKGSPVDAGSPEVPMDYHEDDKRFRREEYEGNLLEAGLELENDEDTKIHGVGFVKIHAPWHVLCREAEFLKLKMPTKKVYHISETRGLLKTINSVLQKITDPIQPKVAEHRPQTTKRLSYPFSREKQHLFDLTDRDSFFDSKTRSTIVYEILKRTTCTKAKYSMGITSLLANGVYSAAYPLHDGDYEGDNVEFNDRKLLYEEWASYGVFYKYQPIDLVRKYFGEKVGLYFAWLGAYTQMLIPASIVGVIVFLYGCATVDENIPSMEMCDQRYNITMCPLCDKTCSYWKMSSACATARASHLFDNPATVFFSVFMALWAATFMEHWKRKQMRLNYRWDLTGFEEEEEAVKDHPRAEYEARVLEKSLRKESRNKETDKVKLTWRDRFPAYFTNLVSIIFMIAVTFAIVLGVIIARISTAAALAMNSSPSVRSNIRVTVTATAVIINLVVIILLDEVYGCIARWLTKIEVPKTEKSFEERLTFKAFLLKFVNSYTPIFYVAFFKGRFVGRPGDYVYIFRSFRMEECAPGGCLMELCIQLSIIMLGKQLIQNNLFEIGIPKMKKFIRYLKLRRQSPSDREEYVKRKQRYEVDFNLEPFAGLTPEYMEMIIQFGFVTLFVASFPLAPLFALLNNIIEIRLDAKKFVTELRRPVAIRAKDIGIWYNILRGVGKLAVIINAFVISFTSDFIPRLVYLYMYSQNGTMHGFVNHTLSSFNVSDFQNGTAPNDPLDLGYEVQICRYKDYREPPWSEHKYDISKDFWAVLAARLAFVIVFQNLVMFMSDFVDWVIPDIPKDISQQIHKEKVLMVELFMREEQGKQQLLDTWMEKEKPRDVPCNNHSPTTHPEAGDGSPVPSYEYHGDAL
# assay: Inside-out patch recording of 1PBC block, mutant Y514A
# Type: cell-based
# measurement setup: Y514A; V 0 mV
measurement label: IC50 (µM)

structure_smiles=N#Cc1c(C(F)(F)F)cc(O)n2c1nc1ccccc12 uom=µM value_measured=22.8
